# target desc: RAD51 (Homo sapiens)
# Construct: His; made in house; host or cells: Escherichia coli BL21-DE3
# Sequence (Q06609 whole entry): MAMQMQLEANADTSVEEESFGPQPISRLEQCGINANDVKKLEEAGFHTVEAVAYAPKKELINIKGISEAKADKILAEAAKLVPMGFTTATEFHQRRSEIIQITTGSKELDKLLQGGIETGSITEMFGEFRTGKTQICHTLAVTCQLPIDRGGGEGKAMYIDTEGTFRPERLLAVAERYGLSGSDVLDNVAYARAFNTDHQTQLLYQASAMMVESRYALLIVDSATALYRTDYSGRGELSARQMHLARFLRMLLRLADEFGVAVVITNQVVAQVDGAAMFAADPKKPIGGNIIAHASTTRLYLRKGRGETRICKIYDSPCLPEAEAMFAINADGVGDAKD
# test: D-loop assay (RAD51-mediated D-loop formation)
# Type: biochemical
# measurement parameters: increasing concentration until 100 µM
reported metric: Effect on D-loop structure formation

>  <smiles repr>
O=[N+]([O-])c1ccc(C=Cc2ccc([N+](=O)[O-])cc2S(=O)(=O)O)c(S(=O)(=O)O)c1

>  <measured value>
no effect

$$$$
>  <smiles repr>
Nc1ccc(C=Cc2ccc(N)cc2S(=O)(=O)O)c(S(=O)(=O)O)c1

>  <measured value>
no effect

$$$$

###

# target desc: RAD51 (Homo sapiens)
# Construct: His; made in house; host or cells: Escherichia coli BL21-DE3
# test: D-loop assay (RAD51-mediated D-loop formation)
# Type: biochemical
reported metric: IC50 (µM)
The reply should be a number in µM, with the unit left off.

## Input Lab request: please report IC50 under test system RAD51 (Homo sapiens) for `CC(=O)Nc1ccc(C=Cc2ccc(N=C=S)cc2S(=O)(=O)O)c(S(=O)(=O)O)c1`
## Output 29
